The reported measurements were obtained from ChEMBL document CHEMBL4627246.

# subject of test: P2X purinoceptor 7 (Homo sapiens) (UniProt Q99572)
# Sequence (Q99572 whole entry): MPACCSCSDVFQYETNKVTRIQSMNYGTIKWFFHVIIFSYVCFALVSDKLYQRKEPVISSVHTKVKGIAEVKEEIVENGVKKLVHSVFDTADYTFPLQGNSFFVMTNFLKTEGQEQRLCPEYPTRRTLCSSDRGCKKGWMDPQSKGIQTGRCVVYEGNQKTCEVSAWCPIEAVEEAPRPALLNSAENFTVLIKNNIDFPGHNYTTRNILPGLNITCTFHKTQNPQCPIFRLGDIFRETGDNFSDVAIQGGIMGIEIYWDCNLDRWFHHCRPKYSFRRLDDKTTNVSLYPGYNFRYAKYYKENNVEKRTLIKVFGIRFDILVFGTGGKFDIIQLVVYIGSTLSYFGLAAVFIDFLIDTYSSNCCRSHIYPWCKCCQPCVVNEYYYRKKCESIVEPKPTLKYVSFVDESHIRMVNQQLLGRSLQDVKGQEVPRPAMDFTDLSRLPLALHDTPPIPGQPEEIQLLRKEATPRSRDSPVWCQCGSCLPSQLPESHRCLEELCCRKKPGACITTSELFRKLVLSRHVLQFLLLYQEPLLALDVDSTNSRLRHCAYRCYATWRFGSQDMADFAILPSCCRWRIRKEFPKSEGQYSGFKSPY
# assay comment: Inhibition of human P2X7 expressed in human HEK293 cells assessed as reduction in BzATP-stimulated TO-PRO-3 incorporation at 10 uM preincubated with compound and TO-PRO-3 for 15 mins prior to BzATP addition and measured after 1 hr by Fluo-3AM dye based flow cytometry relative to control
# Type: cell-based
Calls of active or inactive are those of the source. How the calls were made is not given here.
quantity: inhibition

# compound, inhibition
data = [
    ("COC(=O)[C@@H]1CCC(=O)N1c1ccccc1Cl", "inactive"),
    ("COC(=O)[C@@H]1CCC(=O)N1[Si](C)(C)C", "inactive"),
    ("COc1ccc(NC(=O)[C@@H]2C/C(=C\\N(C)C)C(=O)N2)cc1", "0%"),
    ("COC(=O)[C@@H]1CCC(=O)N1C(c1ccccc1)c1ccccc1", "inactive"),
]

Provide each entry's inhibition from the list below.
1. COc1ccc(N2C(=O)[C@@H]3C/C(=C\N(C)C)C(=O)N3C2N(C)C)cc1 (stereo partly specified)
2. COC(=O)[C@@H]1CCC(=O)N1Cc1ccc(Cl)cc1
3. O=C(NCc1ccccc1Cl)[C@@H]1CCC(=O)N1Cc1ccc(Cl)cc1Cl
4. O=C1CCCC(C(=O)O)N1 (stereo unspecified)
5. O=C(NCc1ccc(Cl)cc1Cl)[C@@H]1CCC(=O)N1c1cccc2ncccc12

### Response
1: 0%; 2: inactive; 3: 0%; 4: 0%; 5: 0%

Provide each entry's inhibition from the list below.
1. CN1C(=O)CC[C@H]1C(=O)NCc1cccc(C(F)(F)F)c1Cl
2. CN(C)/C=C1\C[C@H]2C(=O)N(Cc3ccc(Cl)cc3Cl)C(N(C)C)N2C1=O (stereo partly specified)

### Response
1: 98%; 2: 24%

----------
# System: RPMI-8226
# assay comment: Cytotoxicity against human RPMI8226 cells assessed as effect on cell growth at 10 uM incubated for 48 hrs by sulforhodamine B assay
# Assay type: cell-based
# recorded conditions: rpmi-8226, 48 h

# structure smiles string, subject of test, Activity
records = [
    ("O=C(NCc1ccc(Cl)cc1Cl)[C@@H]1CCC(=O)N1c1nccs1", "RPMI-8226", "Non-Toxic"),
    ("O=C1N[C@H](C(=O)NCc2ccc(Cl)cc2Cl)C/C1=C/NCc1ccc(Cl)cc1Cl", "RPMI-8226", "Non-Toxic"),
    ("CN1C(=O)C(C)(C)C[C@H]1C(=O)NCc1cccc(C(F)(F)F)c1Cl", "RPMI-8226", "Non-Toxic"),
    ("O=C(NCc1ccc(Cl)cc1Cl)[C@@H]1CCC(=O)N1c1ccc(Cl)cc1", "RPMI-8226", "Non-Toxic"),
]

----------
# subject of test: P2X purinoceptor 7 (Homo sapiens) (UniProt Q99572)
# assay comment: Inhibition of human P2X7 expressed in human HEK293 cells assessed as reduction in BzATP-stimulated TO-PRO-3 incorporation at 10 uM preincubated with compound and TO-PRO-3 for 15 mins prior to BzATP addition and measured after 1 hr by Fluo-3AM dye based flow cytometry relative to control
# Type: cell-based
Active and inactive are the calls of the source. How the calls were made is not given here.
quantity: inhibition

Some compounds with known inhibition results, for comparison:
# compound, inhibition
data = [
    ("COC(=O)[C@@H]1CCC(=O)N1", "inactive"),
    ("COC(=O)[C@@H]1CCC(=O)N1Cc1ccccc1Cl", "inactive"),
    ("O=C(NCCc1ccccc1)[C@@H]1CCC(=O)N1Cc1ccc([N+](=O)[O-])cc1", "0%"),
    ("O=C(NCc1ccc(Cl)cc1Cl)[C@@H]1CCC(=O)N1c1cc(Cl)cc(Cl)c1", "0%"),
    ("COC(=O)[C@@H]1CCC(=O)N1c1cccc(C(F)(F)F)c1", "inactive"),
]

Provide each entry's inhibition from the list below.
1. C[C@@H](NC(=O)[C@@H]1CCC(=O)N1)c1ccccc1
2. COC(=O)C1C/C(=C\N(C)C)C(=O)N1C(=O)OC (stereo unspecified)
3. COC(=O)[C@@H]1CCC(=O)N1c1ccc(Cl)cc1Cl
4. O=C(NCc1ccc(Cl)cc1Cl)[C@@H]1CCC(=O)N1c1ccco1
5. O=C(NCCc1ccccc1)[C@@H]1CCC(=O)N1Cc1ccc(Cl)cc1Cl
6. COC(=O)[C@@H]1CCC(=O)N1c1cc(Cl)cc(Cl)c1

### Response
1: inactive; 2: inactive; 3: inactive; 4: 94%; 5: 0%; 6: inactive
